# Test system: OVCAR-5 ovarian
# test: NCI-60 one-dose screen, 48 h
# protocol_conditions: 10 µM unless noted
The panel holds about 83,000 compounds, 20% with a hit somewhere; the sample as a whole holds those more often. The source made the active and inactive calls. Rule for the calls: active = growth percent below 10; inactive = the rest.
The reply should be one of these categories: 1 (yes) (active), 0 (no) (inactive)

INSERT INTO assay_data (compound, label) VALUES
  ('O=C1c2ccccc2C(=O)c2c1cc1c(c2[N+](=O)[O-])OCO1', '1 (yes)'),
  ('COc1ccc(C(O)c2cc3c(N)c(C(=O)Nc4cccc(Cl)c4C)sc3nc2C)cc1 (configuration not stated)', '0 (no)'),
  ('CN1CCN(Cc2ccc(NC(=O)c3cncc(C#Cc4cnc(N)c5ncccc45)c3)cc2C(F)(F)F)CC1', '1 (yes)');

# input // outcome(item) with item = "CCOC(=O)c1c(C)nc2ccccc2c1/C=C/c1ccccc1"
# output 0 (no)

# input Next compound: "COC(=O)c1cc(Br)ccc1O"
# output 0 (no)

# input Can you check "C=C1C(=O)O[C@H]2[C@H]1CC/C(COC(=O)c1ccc(C(=O)O)s1)=C\CC[C@@]1(C)O[C@@H]21" next?
# output 0 (no)

# input Now give it for "CN(C)c1ccc(-c2nc(-c3ccccc3)c(-c3ccccc3)[nH]2)cc1" too.
# output 0 (no)

# input Same read-out for C#CC#CC#CC#CC#CC#CC#CC#CCC1OC[C@H](COC(=O)O[C@@H](C(=O)O[C@H]2C[C@@]3(O)[C@@H](OC(=O)c4ccccc4)[C@@H]4[C@]5(OC(C)=O)CO[C@@H]5C[C@H](O)[C@@]4(C)C(=O)[C@H](OC(C)=O)C(=C2C)C3(C)C)[C@@H](NC(=O)c2ccccc2)c2ccccc2)O1 (some centres not stated) ?
# output 0 (no)

# input Now the same for "O=[N+]([O-])c1cc(NS(=O)(=O)c2ccccc2)ccc1NS(=O)(=O)c1ccccc1"
# output 0 (no)

# input Note, next up: "Oc1ccc(/C=C/c2ccc(O)cc2)cc1"
# output 0 (no)

# input Another compound to check: "Cc1nnc(-c2ccc3c(c2)nc(/C=C/c2ccccc2)n3C2CCCCC2)o1"
# output 0 (no)

# input Param item: "COc1cc(C2C(C(=O)OCc3ccccc3)=C(C)NC(C)=C2C(=O)OCc2ccccc2)cc(OC)c1OC"
# output 0 (no)

# input Now consider "CCCCCCCCCCCCCOC(=O)c1c(C)[nH]c(/C=C2\N=C(c3ccc[nH]3)C=C2OC)c1C" .
# output 0 (no)

# input Next up: "CC(C)(C)n1cc(-c2ccnc(NCCCNS(=O)(=O)c3cccc4ccccc34)c2)c(-c2cccc(F)c2)n1"
# output 0 (no)

# input Record: "CCN(CC)CCN1C(=O)c2c(c(C)c3c(oc4ccc(OC)cc43)c2C)C1=O"
# output 0 (no)

----------
Collected growth values appear next to each entry.
# System: A549/ATCC NSCLC
# test: NCI-60 one-dose screen, 48 h (100 = growth as untreated, 0 = no growth, -100 = all killed)
# protocol_conditions: 10 µM unless noted
This is part of a sample that, as a whole, favours compounds with a hit. Of some 83,000 tested, about 20% had one in any assay.
Numeric only. Scale: %

# input If you can, please state the reported growth value of "O=c1ccc(=O)n(-c2nc(-c3ccc([N+](=O)[O-])cc3)cs2)[nH]1" .
# output 88.9

# input And the next one, "COc1cc2nc3sc(C(=O)Nc4ccc(C(=O)OC(C)C)cc4)c(C(=O)Nc4ccc(Cl)cc4C)n3c(=O)c2cc1OC" ?
# output 52

# input Entry "Cc1cc(Nc2ccc(C(=O)N3CCCC3)cc2)nc(NCCCNc2ccnc3cc(Cl)ccc23)n1" please
# output 104

# input Repeat for the following compound: "C=C(C)[C@@H]1CCC[C@]2(C(=O)O)CC[C@]3(C)[C@@H](CC[C@@H]4[C@@]5(C)C/C(=C/c6ccncc6)C(=O)C(C)(C)[C@@H]5CC[C@]43C)[C@@H]12"
# output 16.3

# input Query "COc1cc(C(=O)n2nc(N3CCOCC3)c3cc(-n4cccc4)ccc32)cc(OC)c1OC" next
# output 72.6

# input Note, next up: "O=S(=O)(Oc1ccc(Br)cc1)c1ccc(Cl)cc1"
# output 101

# input Record: "COc1ccc(/C=C/C(=O)c2cc3c(N)c(C(=O)Nc4cccc(Cl)c4C)sc3nc2C)cc1"
# output 17.6

# input Param item: "COc1ccc(-c2nc(/C=C3\C(=O)N(C)c4ccccc43)c3ccccn23)cc1"
# output 88.7

# input Next entry: "O=C(/C=C/c1ccc(Cl)cc1)c1cccc(OCCCOc2cccc(C(=O)/C=C/c3ccc(Cl)cc3)c2)c1"
# output 92.7

# input Likewise for "COC(=O)c1c2c(n3ccccc13)C(=O)c1ccccc1C2=O" ?
# output -49.1

# input What about this compound? "Cc1nnc(-c2ccc3c(c2)nc(/C=C/c2ccccc2)n3C2CCCCC2)o1"
# output 52.5

----------
# Test system: RXF 393 renal
# test: NCI-60 one-dose screen, 48 h (100 = growth as untreated, 0 = no growth, -100 = all killed)
# protocol_conditions: 10 µM unless noted
The panel holds about 83,000 compounds, 20% with a hit somewhere; the sample as a whole holds those more often.
reported_endpoint: growth (%)
Write it as a number; the unit % goes unstated.

Take a look at these entries with their results.
INSERT INTO results (compound, reported_endpoint, endpoint_unit, experimental_result) VALUES
  ('S=c1[nH]c(=S)c2c(-c3ccccc3)c(-c3ccccc3)oc2[nH]1', 'growth', '%', 91.2),
  ('Cc1ccc(S(=O)(=O)c2nc(-c3ccccc3)oc2Sc2nc3ccccc3s2)cc1', 'growth', '%', 77.3),
  ('CN1CCN(Cc2ccc(NC(=O)c3cncc(C#Cc4cnc5ccc(Cl)nn45)c3)cc2C(F)(F)F)CC1', 'growth', '%', -52.8);

# input For the compound "O=C(/C=C/c1cccc(Cl)c1Cl)Nc1ncc(Cc2ccccc2Cl)s1" , what growth is on record?
# output 37.8

----------
# Tested on: SK-MEL-2 melanoma
# test: NCI-60 one-dose screen, 48 h (100 = growth as untreated, 0 = no growth, -100 = all killed)
# protocol_conditions: 10 µM unless noted
This is part of a sample that, as a whole, favours compounds with a hit. Of some 83,000 tested, about 20% had one in any assay.
Please mark 1 if the recorded growth is equal to or greater than 80%, and 0 if it falls below.

Below, 9 molecules whose answers are already recorded.
INSERT INTO assay_data (item_smiles, label) VALUES
  ('COc1cc(/C=C/C(=O)c2ccc(-n3cc(CN4CCN(c5cc6c(cc5F)c(=O)c(C(=O)O)cn6C5CC5)CC4)nn3)cc2)ccc1O', 1),
  ('O=C(NNc1cnccn1)c1nc2cc(F)ccc2n2cccc12', 0),
  ('COc1cnc2c(c1)C(=O)c1c-2n(CCCCl)c(=O)c2ccncc12', 1),
  ('CN1CCN(CC(=O)Nc2ccc3ncnc(Nc4ccc(Oc5cccc(C(F)(F)F)c5)c(Cl)c4)c3c2)CC1', 0),
  ('Nc1c(C(=O)Nc2cccc(Cl)c2)sc2nc3c(cc12)CCCC3', 1),
  ('CCSc1oc(C)nc1[P+](c1ccccc1)(c1ccccc1)c1ccccc1', 0),
  ('COc1cccc(/C=N/NC(=O)c2ccccc2N2CCCC2)c1O', 0),
  ('CN(C)S(=O)(=O)Oc1ccc(-c2sc3cc(OS(=O)(=O)N(C)C)ccc3c2C(=O)c2ccc(OCCN3CCCCC3)cc2)cc1', 0),
  ('CCOC(=O)c1c(C)nc2ccccc2c1/C=C/c1ccccc1', 0);

Moving on to the next molecule.
# input Does the molecule "COC(=O)c1c2c(c(C)[n+]([O-])c1C)C(=O)C(NCc1cccc(Cl)c1)=CC2=O" have recorded growth that is 80% or more?
# output 0

----------
# Tested on: NCI-H226 lung
# test: NCI-60 one-dose screen, 48 h (100 = growth as untreated, 0 = no growth, -100 = all killed)
# protocol_conditions: 10 µM unless noted
# Procedure: Growth inhibition of the NCI-H226 human Non-Small Cell Lung tumor cell line is measured as a screen for anti-cancer activity. Cells are grown in 96 well plates and exposed to the test compound for 48 hours. Compounds are tested at a single concentration, which is 10^-5 M for most compounds. The reported endpoint is percent growth (GI% or GIPRCNT), where numbers from 0 - 100% represent growth inhibition, and numbers from -100% - 0 represent cell death. […]
Compounds without any hit were thinned out: in the full panel of roughly 83,000, 20% have a hit.
Rule for this label: met means growth is less than 40%; not met means growth is at least 40%.

INSERT INTO results (molecule, tested_on, label) VALUES
  ('Fc1cc(Nc2ccc3c(OCCCN4CCOCC4)cccc3n2)ccc1Cl', 'NCI-H226 lung', 'not met'),
  ('C=CCN1C(=O)c2cccc3c(N4CCOCC4)ccc(c23)C1=O', 'NCI-H226 lung', 'met'),
  ('CCC1S/C(=N\N=C(\C)c2cc3cc(Cl)ccc3o2)N(c2ccccc2)C1=O (stereo not given)', 'NCI-H226 lung', 'not met'),
  ('C=C1C(=O)O[C@H]2[C@H]1CC/C(COC(=O)c1ccc(C(=O)O)s1)=C\CC[C@@]1(C)O[C@@H]21', 'NCI-H226 lung', 'not met'),
  ('CC1CCN(C(=S)SCC(=O)NC(=O)c2ccccc2)CC1', 'NCI-H226 lung', 'not met');

# input Threshold test, growth < 40%: "Oc1c(CN2CCCC2)cc(CSCc2ccccc2)c2cccnc12"
# output met

# input What do we get for CCN1C(=O)N(CC)C2C1NC(=S)N2/N=C/c1ccc(C(F)(F)F)cc1 (stereo not given) ?
# output not met

# input Entry to check: "Cc1c2cccnc2c(C)c2c1c1cc(CO)ccc1n2C"
# output met

# input Again, but for "CCN1C2CCC1/C(=C\c1ccc(F)cc1)C(=O)/C2=C/c1ccc(F)cc1"
# output not met

# input Do the same for "O=C(CN1CCN(c2cc3c(cc2F)c(=O)c(C(=O)O)cn3C2CC2)CC1)N/N=C/c1ccco1" please
# output not met
